These measurements were taken from patent US9850283B2.

Reported pIC50 by item:
- assayed system: Human PD-L1/PD-1 (Homo sapiens)
- Construct: made in house; host or cells: HEK293T
- Sequence (Q9NZQ7 with tags, fused parts or gaps): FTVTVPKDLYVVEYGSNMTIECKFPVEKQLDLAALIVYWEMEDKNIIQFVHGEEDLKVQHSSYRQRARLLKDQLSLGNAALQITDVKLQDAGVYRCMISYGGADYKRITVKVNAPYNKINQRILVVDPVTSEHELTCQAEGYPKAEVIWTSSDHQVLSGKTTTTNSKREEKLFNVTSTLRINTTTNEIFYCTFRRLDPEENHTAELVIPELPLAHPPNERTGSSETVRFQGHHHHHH
- experimental protocol: HTRF PD-1-Ig/PD-L1-His binding assay (human PD-L1)
- condition: Table 8, Compound No. 1 variant macrocyclic peptides; read-out: HTRF Human PD-L1/PD-1 Binding Assay IC50
Positions of bridges follow the written chain, without caps; N, C: chain ends. Non-standard residues stand in square brackets, D forms with d. Residues, ends and D or L forms follow the SMILES beside them. ξ: configuration not given here. NMeNle = CCCC[C@H](NC)C(=O)O; NMeA = CN[C@@H](C)C(=O)O; ξP = O=C(O)C1CCCN1; Sar = CNCC(=O)O
// field semantics: pIC50 = negative decimal log of concentration (mol/L)

Qu. Could you tell me which pIC50 is on file for CCCC[C@H]1C(=O)N(C)[C@@H](C)C(=O)N[C@@H](CCCNC(=N)N)C(=O)N[C@H](C(=O)NCC(N)=O)CSCC(=O)N[C@@H](Cc2ccccc2)C(=O)N(C)[C@@H](C)C(=O)N[C@@H](CC(N)=O)C(=O)N2CCCC2C(=O)N[C@@H](Cc2cnc[nH]2)C(=O)N[C@@H](CC(C)C)C(=O)N(C)CC(=O)N[C@@H](Cc2c[nH]c3ccccc23)C(=O)N[C@@H](CO)C(=O)N[C@@H](Cc2c[nH]c3ccccc23)C(=O)N1C (some centres unmarked) [Compound No. 21] ({CH2CO}-F[NMeA]N[ξP]HL[Sar]WSW[NMeNle][NMeA]RCG-NH2; thioether N-14) ?
Ans. 7.68

Please look at the following compound next.
Qu. Would you kindly share the measured pIC50 for CCCC[C@H]1C(=O)N(C)[C@@H](CCCC)C(=O)N[C@@H](CCCNC(=N)N)C(=O)N[C@H](C(=O)NCC(N)=O)CSCC(=O)N[C@@H](Cc2ccccc2)C(=O)N(C)[C@@H](C)C(=O)N[C@@H](CC(N)=O)C(=O)N2CCCC2C(=O)N[C@@H](Cc2cnc[nH]2)C(=O)N[C@@H](CC(C)C)C(=O)N(C)[C@@H](C)C(=O)N[C@@H](Cc2c[nH]c3ccccc23)C(=O)N[C@@H](CO)C(=O)N[C@@H](Cc2c[nH]c3ccccc23)C(=O)N1C (some centres unmarked) [Compound No. 13] ({CH2CO}-F[NMeA]N[ξP]HL[NMeA]WSW[NMeNle][NMeNle]RCG-NH2; thioether N-14) ?
Ans. 7.80
